So I've got a bunch of compounds here, and I need their pEC50 values.
tested on: bloodstream form T. brucei Lister 427; test: ATP–bioluminescence-based bloodstream form T. brucei cell viability assay; settings: Trypanosoma brucei, 48 h, read-out: Tb427 EC50
Quick note: pEC50 values are minus log10 of concentrations in mol/L.

Tell me its pEC50 given `Cc1cc(Nc2cc(Cl)cc(-c3cncnc3)c2)nc(N)n1` as the entry.
4.24

Respond only with pEC50 recorded for `Cc1cc(Nc2cc(C(F)(F)F)cc(C(F)(F)F)c2)nc(N)n1`
4.85

# return recorded pEC50 for input `Cc1cc(Nc2cc(Cl)cc(-c3cc4ccccc4o3)c2)nc(N)n1`
5.85

Supply recorded pEC50 for `CC(=O)c1ccc(-c2cc(Cl)cc(Nc3cc(C)nc(N)n3)c2)cc1` here.
5.17

Name the recorded pEC50 of the compound listed here: `Cc1cc(N)cc(Nc2cc(Cl)cc(Cl)c2)n1`
4.89

Indicate its recorded pEC50; the compound in question is `Cc1cc(Nc2cc(Cl)cc(-c3cc4ccccc4s3)c2)nc(N)n1`
5.80

State its pEC50: `CCc1cc(Br)cc(Nc2cc(C)nc(N)n2)c1`
5.26

Please give measured pEC50 of the following entry: `Cc1cc(Nc2cccc(Br)c2)nc(N)n1`
4.66

For `CCc1cc(Nc2cc(C)nc(N)n2)cc(-c2ccc(F)cc2)c1` , write its pEC50.
5.89

Could you please provide reported pEC50 for `Cc1cc(Nc2cc(F)cc(F)c2)nc(N)n1` ? Thanks!
4.15

Give pEC50 for `CCc1cc(Nc2cc(Cl)cc(Cl)c2)nc(N)n1`
5.33

Given the compound `Cc1cc(Nc2cc(Cl)c(OC(F)F)c(Cl)c2)nc(N)n1` , write its reported pEC50.
5.35

Give pEC50 for `COc1cc(Nc2cc(C)nc(N)n2)cc(OC)c1`
4.39

Determine from records and report pEC50 for `Cc1cc(Nc2cc(Br)cc(OCC(C)C)c2)nc(N)n1`
5.36

Name the recorded pEC50 of the item `Cc1cc(Nc2cc(Cl)cc(S(F)(F)(F)(F)F)c2)nc(N)n1` in your answer.
4.89

// fetch pEC50 given entry `Cc1nc(N)nc(Nc2cc(Cl)cc(Cl)c2)c1C`
4.77

Assign pEC50 to the following record: `Cc1cc(Nc2cc(Cl)cc(-c3cccc(Cl)c3)c2)nc(N)n1`
5.72

For `Cc1cc(Nc2cc(Cl)cc(-c3ccc(-c4ccccc4)cc3)c2)nc(N)n1` , write its pEC50.
6.04

Look up and state reported pEC50 for `Cc1cc(Nc2ccc(-c3cc(Cl)cc(Cl)c3)cc2)nc(N)n1`
6.00

Name the recorded pEC50 of the item `Cc1cc(Nc2ccc(C(C)C)cc2)nc(N)n1` in your answer.
4.96

Specify reported pEC50 for the compound shown: `Cc1cc(N(C)c2cc(Cl)cc(Cl)c2)nc(N)n1`
4.42

For the compound `Cc1cc(Nc2cc(Cl)cc(-c3ccc(Cl)c(C(F)(F)F)c3)c2)nc(N)n1` , give its reported pEC50.
5.82

Return reported pEC50. Input compound: `Cc1cc(Nc2cc(Cl)cc(-c3ccc(Cl)c(Cl)c3)c2)nc(N)n1`
5.54

Specify measured pEC50 for `Cc1nc(N)cc(Nc2cc(Cl)cc(Br)c2)n1` .
4.70

Supply pEC50 value. Item: `Cc1cc(Nc2cc(Cl)cc(-c3cnn(C)c3)c2)nc(N)n1`
5.17

Tell me its pEC50 given `CCOc1cc(Br)cc(Nc2cc(C)nc(N)n2)c1` as the entry.
5.36

Return pEC50 (reported value) for this compound: `Cc1cc(Nc2cc(Cl)cc(-c3ccccc3Cl)c2)nc(N)n1`
5.07

Could you please provide reported pEC50 for `Cc1cc(Nc2cc(Cl)cc(-c3ccccc3)c2)nc(N)n1` ? Thanks!
5.35

Check the records and state pEC50 for `Cc1cc(Nc2cc(Br)cc(S(F)(F)(F)(F)F)c2)nc(N)n1`
6.35

Report pEC50 for `Cc1cc(Nc2cc(Cl)c(F)c(Cl)c2F)nc(N)n1`
5.00

Name the recorded pEC50 of the item `Cc1cc(Nc2cc(Cl)cc(-c3ccc4nonc4c3)c2)nc(N)n1` in your answer.
6.24

Supply measured pEC50 of `Cc1cc(Nc2cc(Cl)cc(-c3ccc(C(F)(F)F)cc3)c2)nc(N)n1` in your reply.
5.70

Provide measured pEC50 value, entry: `Cc1cc(NCCc2cc(Cl)cc(Cl)c2)nc(N)n1`
5.24

// fetch pEC50 given entry `Cc1cc(Nc2cc(Cl)cc(-c3cc4ccccc4c4ccccc34)c2)nc(N)n1`
5.74

Give pEC50 for the following compound: `Cc1cc(Nc2cc(Cl)cc(-c3ccc4ccccc4c3)c2)nc(N)n1`
5.77

Provide one value: measured pEC50 of `COC(=O)c1cc(Nc2cc(C)nc(N)n2)cc(C(=O)OC)c1`
4.38

Entry `Nc1cc(Nc2cc(Cl)cc(Cl)c2)ccn1` needs its pEC50 filled in; supply it.
4.96

Give a short answer stating reported pEC50 for `Cc1cc(Nc2cc(Cl)cc(-c3ccc(N(C)C)cc3)c2)nc(N)n1` .
5.30
